RUN DESCRIPTION: Oral bioavailability in mouse
Assay type: ADME, organism-based
COND: in vivo

| MOLECULE | bioavailability (%) |
| --- | --- |
| Cn1cc(C2(c3cc(C(=O)O)ccn3)N[C@@H](c3nc(-c4ccc(F)cc4)c[nH]3)Cc3c2[nH]c2ccccc32)cn1 (single isomer, unassigned; 3A) | 1.5 |

----------
Record set of IC50 for target or system Somatostatin receptor type 3 (Homo sapiens, UniProt P32745).
MEASURED QUANTITY: IC50 (nM)

| COMPOUND | MEASURED QUANTITY | VALUE UNITS | MEASURED NUMBER |
| --- | --- | --- | --- |
| Cn1cc([C@]2(c3cncc(C(=O)O)c3)N[C@@H](c3nc(-c4ccc(F)cc4)c[nH]3)Cc3c2[nH]c2ccccc32)cn1 | IC50 | nM | 6.12 |
| CCOC(=O)c1cncc([C@@]2(c3cnn(C)c3)N[C@@H](c3nc(-c4ccc(F)cc4)c[nH]3)Cc3c2[nH]c2ccccc32)c1 | IC50 | nM | 24 |
| CCOC(=O)c1cncc([C@]2(c3cnn(C)c3)N[C@@H](c3nc(-c4ccc(F)cc4)c[nH]3)Cc3c2[nH]c2ccccc32)c1 | IC50 | nM | 0.15 |
| CCOC(=O)c1cccc(C2(c3cnn(C)c3)N[C@@H](c3nc(-c4ccc(F)cc4)c[nH]3)Cc3c2[nH]c2ccccc32)n1 (single isomer, unassigned; 6B) | IC50 | nM | 5.36 |
| CCOC(=O)c1cccc(C2(c3cnn(C)c3)N[C@@H](c3nc(-c4ccc(F)cc4)c[nH]3)Cc3c2[nH]c2ccccc32)n1 (single isomer, unassigned; 6A) | IC50 | nM | 1.97 |
| Cn1cc(C2(c3cc(C(=O)O)ccn3)N[C@@H](c3nc(-c4ccc(F)cc4)c[nH]3)Cc3c2[nH]c2ccccc32)cn1 (single isomer, unassigned; 3A) | IC50 | nM | 1.71 |
| Cn1cc([C@@]2(c3cncc(C(=O)O)c3)N[C@@H](c3nc(-c4ccc(F)cc4)c[nH]3)Cc3c2[nH]c2ccccc32)cn1 | IC50 | nM | 0.52 |
| Cn1cc(C2(c3cc(C(=O)O)ccn3)N[C@@H](c3nc(-c4ccc(F)cc4)c[nH]3)Cc3c2[nH]c2ccccc32)cn1 (single isomer, unassigned; 3B) | IC50 | nM | 52.3 |
